# Tested on: BJ
# assayInfo: cells
# Format: functional, cell-based
# assaySetup: Homo sapiens
Activity calls are given as the source filed them.

>  <smilesData>
CCOc1ccc(/C=C2\SC(=S)N(CCCC(=O)NCCCN3CCOCC3)C2=O)cc1

>  <EC50>
> 150 µM (not active)

$$$$
>  <smilesData>
Cc1ccc(C(=O)Cn2cc(-c3ccc(C)cc3)[n+]3c2CCCCC3)cc1

>  <EC50>
> 150 µM (not active)

$$$$
>  <smilesData>
Cc1[nH]n(-c2ccccc2)c(=O)c1N=Nc1c(O)cc(S(=O)(=O)N(C)C)c2ccccc12

>  <EC50>
10.3 µM (active)

$$$$
>  <smilesData>
CN1CCN(C(=O)CCCN2C(=O)/C(=C/c3cccc(Br)c3)SC2=S)CC1

>  <EC50>
> 150 µM (inconclusive)

$$$$

----------
# testSystem: UniProt:P42574
# Type: functional
Active and inactive are the calls of the source.

>  <molecule>
O=C(O)c1ccc(N/N=C/c2cn(Cc3ccc(F)cc3)c3ccccc23)cc1

>  <IC50>
89.1 µM (active)

$$$$
>  <molecule>
COCC(C)n1c(C)cc(C(=O)COC(=O)c2n[nH]c3ccccc23)c1C (configuration not stated)

>  <IC50>
16.8 µM (active)

$$$$
>  <molecule>
O=C(O)c1cccc(NC(=O)c2cccc(S(=O)(=O)Nc3cccc([N+](=O)[O-])c3)c2)c1

>  <IC50>
19.2 µM (active)

$$$$
>  <molecule>
Cc1nc(Cl)sc1C(=O)Nc1ccc2ccccc2c1

>  <IC50>
22.7 µM (active)

$$$$
>  <molecule>
O=[N+]([O-])c1ccccc1N/N=C/c1c[nH]c2ccccc12

>  <IC50>
32.8 µM (active)

$$$$
>  <molecule>
CC(C)c1ccc(/N=C/c2c(O)oc3ccccc3c2=O)cc1

>  <IC50>
16.9 µM (active)

$$$$
>  <molecule>
CN(CC(=O)Nc1ccccc1Cl)C(=O)COC(=O)c1ccc([N+](=O)[O-])s1

>  <IC50>
6.21 µM (active)

$$$$

----------
Measured AC50 accompanies every entry in the list below.
# testSystem: Replicative DNA helicase DnaB (Mycobacterium tuberculosis)
# assayInfo: DnaB intein splicing inhibitors, dose response, biochemical, cell-free fluorescence (AID 449749)
# Type: functional
Active and inactive are the calls of the source.
readoutLabel: AC50

>  <molecule>
Cc1nn(-c2ccccc2)c2c1C(c1ccccc1)C(C#N)=C(N)O2 (configuration not stated)

>  <assayResult>
16.8 µM (active)

$$$$
>  <molecule>
CCOC(=O)CC1=NN(c2ccccc2)C(=O)/C1=C\c1ccc(OC)cc1OC

>  <assayResult>
0.805 µM (active)

$$$$
>  <molecule>
O=C(CCl)N1N=C(c2ccco2)CC1c1cccs1 (configuration not stated)

>  <assayResult>
92.5 µM (active)

$$$$
>  <molecule>
CC(=O)Nc1ccc(NC(=O)c2nc(S(=O)(=O)Cc3ccccc3)ncc2Cl)cc1

>  <assayResult>
11.2 µM (active)

$$$$
>  <molecule>
CCOC(=O)Cc1n[nH]c2c1C(c1cc(OC)ccc1OC)C(C#N)=C(N)O2 (configuration not stated)

>  <assayResult>
73.9 µM (active)

$$$$
>  <molecule>
O=C1/C(=N\c2ccc(O)cc2)C=C(O)c2ccccc21

>  <assayResult>
3.88 µM (active)

$$$$
>  <molecule>
Cc1ccc(NC(=O)c2nc(S(=O)(=O)Cc3ccccc3C)ncc2Cl)cc1C

>  <assayResult>
> 380 µM (inconclusive)

$$$$
>  <molecule>
Clc1ccc2nnnc(-c3ccccc3)c2c1

>  <assayResult>
24.8 µM (active)

$$$$
>  <molecule>
O=[N+]([O-])c1c(O)nc(O)nc1/C=C/c1cccnc1

>  <assayResult>
> 380 µM (inactive)

$$$$
>  <molecule>
CCOC(=O)c1c(CSC(=N)N)n(-c2ccccc2)c2cc(Br)c(OC(C)=O)cc12

>  <assayResult>
5.9 µM (active)

$$$$
>  <molecule>
COC(=O)CC1=NN(c2ccc(OC)cc2)C(=O)C1

>  <assayResult>
54.9 µM (active)

$$$$
>  <molecule>
CCCCS/C(=C(/C#N)C(N)=O)c1cc2c([nH]1)CCCC2

>  <assayResult>
> 380 µM (inactive)

$$$$
